Please provide measured deltaG for the entries that follow.
# Test system: Lipid bilayer
# Procedure summary: Induction of membrane perturbation in DC22:1PC LUV bilayer assessed as change in deltaG for pure gramicidin monomer to dimer by fluorescence quenching assay (reference value: 0 kcal/mol)
Numbers only, in kcal/mol.

Before answering, review these 5 worked examples.
Smiles entry: CCCCCCCCCCCCOCCOCCOCCOCCOCCOCCO
deltaG / kcal/mol: -1.4

Smiles entry: CC(C)CCC[C@@H](C)[C@H]1CC[C@H]2[C@@H]3CC=C4C[C@@H](O)CC[C@]4(C)[C@H]3CC[C@]12C
deltaG / kcal/mol: 2.5

Smiles entry: Oc1ccc(/C=C/c2cc(O)cc(O)c2)cc1
deltaG / kcal/mol: -1.7

Smiles entry: CCCCCCCCO
deltaG / kcal/mol: -0.4

Smiles entry: CC(C)(C)CC(C)(C)c1ccc(OCCOCCOCCOCCOCCOCCOCCOCCOCCOCCO)cc1
deltaG / kcal/mol: -1.5

// for each compound below, give its deltaG
1. CCCCCCCCCCCCOP(=O)([O-])OCC[N+](C)(C)C
2. C1CCCCC1

1. -0.5
2. 0

Determine from records and report deltaG for `COc1cc(CNC(=O)CCCC/C=C/C(C)C)ccc1O`
-0.5

###

# Tested on: Lipid bilayer
# Procedure summary: Induction of membrane perturbation in DC22:1PC LUV bilayer assessed as change in deltaG for gramicidin mixture monomer to dimer by fluorescence quenching assay (reference value: 0 kcal/mol)
Quantity: deltaG (kJ/mol)
Answers are plain numbers, in kJ/mol.

Smiles entry: CC(C)(C)CC(C)(C)c1ccc(OCCOCCOCCOCCOCCOCCOCCOCCOCCOCCO)cc1
Assay system: Lipid bilayer
Unit of measurement: kJ/mol
Value measured: -6.69

Smiles entry: Oc1ccc(/C=C/c2cc(O)cc(O)c2)cc1
Assay system: Lipid bilayer
Unit of measurement: kJ/mol
Value measured: -7.53

Smiles entry: COc1cc(CNC(=O)CCCC/C=C/C(C)C)ccc1O
Assay system: Lipid bilayer
Unit of measurement: kJ/mol
Value measured: -2.51

Smiles entry: CCCCCCCCCCCCOP(=O)([O-])OCC[N+](C)(C)C
Assay system: Lipid bilayer
Unit of measurement: kJ/mol
Value measured: -2.09

Smiles entry: C1CCCCC1
Assay system: Lipid bilayer
Unit of measurement: kJ/mol
Value measured: 0

// for each compound below, give its deltaG
1. CCCCCCCCCCCCOCCOCCOCCOCCOCCOCCO
2. CCCCCCCCO

-6.28
-1.26
